List of Kd values.
# System: T1, human recombinant soluble CD73 protein (human, UniProt P21589 27-547)
# T1 construct: also called huCD73; rhCD73
# T1 sequence: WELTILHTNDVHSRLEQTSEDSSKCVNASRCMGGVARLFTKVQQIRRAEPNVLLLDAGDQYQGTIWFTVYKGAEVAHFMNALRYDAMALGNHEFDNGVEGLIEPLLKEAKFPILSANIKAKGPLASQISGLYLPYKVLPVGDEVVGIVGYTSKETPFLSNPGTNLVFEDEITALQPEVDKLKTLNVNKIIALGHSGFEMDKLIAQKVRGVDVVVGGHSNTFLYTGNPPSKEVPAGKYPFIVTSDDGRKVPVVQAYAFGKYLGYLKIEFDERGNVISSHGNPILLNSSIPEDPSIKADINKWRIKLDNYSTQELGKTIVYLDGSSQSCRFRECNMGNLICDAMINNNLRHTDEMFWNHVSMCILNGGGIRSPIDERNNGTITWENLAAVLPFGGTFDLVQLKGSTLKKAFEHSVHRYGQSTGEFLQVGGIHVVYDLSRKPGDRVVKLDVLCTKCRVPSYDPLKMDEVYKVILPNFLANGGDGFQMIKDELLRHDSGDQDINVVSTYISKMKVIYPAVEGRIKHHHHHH
# Method: SPR, Ab captured on Protein A, soluble huCD73 as analyte
Please respond with the number in nM and leave the unit unwritten.

- Binder: "H2L4 (antibody, human IgG1, V domains shown) VH: QIQLVQSGAEVKKPGASVKVSCKASGYAFTSYNMYWVRQAPGQSLEWMGYIDPYNGGSSYNLTFKGRVTITVDKSASTAYMELSSLRSEDTAVYYCARGYGNYKAWFAYWGQGTLVTVSS VL: DVQMTQSPSSLSASVGDRVTITCKASQSVSNDVAWYQQKPGKAPKLLIYYASTRYTGVPDRFSGSGYGTDFTFTISSLQPEDIATYFCQQDYSSLTFGQGTKLEIK"
  Measurement: 0.9
- Binder: "H3L0 (antibody, human IgG1, V domains shown, L0 VL limits counted by alignment with L1) VH: QIQLVQSGAEVKKPGASVKVSCKASGYAFTSYNMYWVRQAPGQSLEWIGYIDPYNGGSSYNLTFKGKATITVDKSASTAYMELSSLRSEDTAVYYCARGYGNYKAWFAYWGQGTLVTVSS VL: DIQMTQSPSSLSASVGDRVTITCKASQSVSNDVAWYQQKPGKAPKLLIYYASTRYTGVPSRFSGSGSGTDFTFTISSLQPEDIATYYCQQDYSSLTFGQGTKLEIK"
  Measurement: 29.4
- Binder: "H1L1 (antibody, human IgG1, V domains shown) VH: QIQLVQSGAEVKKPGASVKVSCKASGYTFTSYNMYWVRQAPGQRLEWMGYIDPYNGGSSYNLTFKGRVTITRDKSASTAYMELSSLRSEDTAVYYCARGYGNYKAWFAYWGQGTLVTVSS VL: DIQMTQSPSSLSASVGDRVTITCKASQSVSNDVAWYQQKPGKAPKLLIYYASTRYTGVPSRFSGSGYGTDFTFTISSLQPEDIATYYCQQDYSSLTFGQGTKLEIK"
  Measurement: 0.8

Query (binder): H0L0 (antibody, human IgG1, V domains shown, variable-domain limits counted by alignment with H1 and L1) VH: QVQLVQSGAEVKKPGASVKVSCKASGYTFTSYNMYWVRQAPGQRLEWMGYIDPYNGGSSYNLTFKGRVTITRDTSASTAYMELSSLRSEDTAVYYCARGYGNYKAWFAYWGQGTLVTVSS VL: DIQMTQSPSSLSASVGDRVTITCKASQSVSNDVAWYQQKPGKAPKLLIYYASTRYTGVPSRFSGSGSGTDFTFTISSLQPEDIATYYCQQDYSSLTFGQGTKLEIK ; field requested: Kd
65

Try H4L0 (antibody, human IgG1, V domains shown, L0 VL limits counted by alignment with L1) VH: QIQLVQSGAEVKKPGASVKVSCKASGYAFASYNMYWVRQAPGQSLEWIGYIDPYNGGSSYNLTFKGKATLTVDKSASTAYMELSSLRSEDTAVYYCARGYGNYKAWFAYWGQGTLVTVSS VL: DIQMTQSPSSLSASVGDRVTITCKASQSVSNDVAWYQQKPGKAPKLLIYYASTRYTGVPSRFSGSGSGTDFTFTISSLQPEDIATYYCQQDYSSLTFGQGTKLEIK next.
7.8
